Here we list compounds with their recorded Ki when tested on Liver carboxylesterase 1 (Homo sapiens).
Sequence (P23141 whole entry): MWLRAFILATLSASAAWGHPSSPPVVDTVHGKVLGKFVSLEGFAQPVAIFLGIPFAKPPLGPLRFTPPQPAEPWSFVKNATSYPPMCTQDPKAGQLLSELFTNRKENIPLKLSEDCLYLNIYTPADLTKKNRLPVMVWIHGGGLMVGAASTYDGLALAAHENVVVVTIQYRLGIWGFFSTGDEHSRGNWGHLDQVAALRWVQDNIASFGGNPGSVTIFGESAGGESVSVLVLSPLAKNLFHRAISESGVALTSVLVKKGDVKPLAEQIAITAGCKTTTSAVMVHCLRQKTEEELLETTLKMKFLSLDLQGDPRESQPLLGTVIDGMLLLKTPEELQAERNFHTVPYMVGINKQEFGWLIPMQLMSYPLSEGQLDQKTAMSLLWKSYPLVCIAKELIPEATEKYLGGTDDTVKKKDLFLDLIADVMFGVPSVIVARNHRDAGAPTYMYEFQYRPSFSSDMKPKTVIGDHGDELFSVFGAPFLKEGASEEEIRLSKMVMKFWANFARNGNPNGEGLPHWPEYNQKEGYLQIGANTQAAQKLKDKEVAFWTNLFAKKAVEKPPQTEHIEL
Give the value, in units of nM, as a plain number.

Here's what some known entries look like.
* CCCCCCCC(=O)C(=O)CCCCCCC | 7.6
* O=C(Cc1ccccc1)C(=O)Cc1ccccc1 | 3080
* CCCCCCC(=O)C(=O)c1ccccc1 | 2.19
* CCCC(=O)C(=O)CCC | 8060
* CCCCCC(=O)C(=O)CCCCC | 3

// sample `CCCCCCCCC(=O)C(=O)CCCCCCCC` , its Ki was 0.84

// sample `CCCCCCC(=O)C(=O)CCCCCC` , its Ki was 4.8

// sample `CCCC(=O)C(=O)c1ccccc1` , its Ki was 102

// sample O=C(C(=O)C(Br)c1ccccc1)C(Br)c1ccccc1 (centres undefined) , its Ki was 107

// sample `CCC(=O)C(=O)c1ccccc1` , its Ki was 1550

// sample `CCCCC(=O)C(=O)CCCC` , its Ki was 46.6

// sample `CCCCC(=O)C(=O)c1ccccc1` , its Ki was 26.1

// sample `CCCCCC(=O)C(=O)c1ccccc1` , its Ki was 6.65

// sample O=C(Cc1ccccc1)C(=O)C(Br)c1ccccc1 (centres undefined) , its Ki was 2630

// sample `O=C(C(=O)C1CCCCC1)C1CCCCC1` , its Ki was 5
